Target: Human plasma kallikrein (Homo sapiens (Human), UniProt P03952)
Sequence (P03952 391-638): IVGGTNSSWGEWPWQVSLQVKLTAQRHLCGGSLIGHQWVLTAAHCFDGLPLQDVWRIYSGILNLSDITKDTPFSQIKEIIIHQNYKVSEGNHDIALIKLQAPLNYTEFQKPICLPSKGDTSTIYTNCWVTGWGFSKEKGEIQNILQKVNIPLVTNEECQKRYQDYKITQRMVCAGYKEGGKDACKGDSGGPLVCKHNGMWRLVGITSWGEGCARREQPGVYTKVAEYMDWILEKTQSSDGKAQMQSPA
Sequence (P03952 20-390): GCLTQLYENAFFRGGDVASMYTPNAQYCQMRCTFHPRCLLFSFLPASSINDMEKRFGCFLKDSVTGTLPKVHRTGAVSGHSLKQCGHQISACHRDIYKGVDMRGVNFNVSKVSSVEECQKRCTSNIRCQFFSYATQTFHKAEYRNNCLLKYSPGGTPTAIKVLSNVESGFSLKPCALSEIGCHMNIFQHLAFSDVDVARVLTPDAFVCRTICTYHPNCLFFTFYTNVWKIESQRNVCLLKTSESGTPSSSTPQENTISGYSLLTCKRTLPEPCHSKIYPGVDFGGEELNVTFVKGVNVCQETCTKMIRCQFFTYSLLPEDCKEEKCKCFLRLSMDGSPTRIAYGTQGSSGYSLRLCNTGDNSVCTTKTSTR
Test: Determination of the IC50 for plasma kallikrein
Conditions: 25° C., substrate H-DPro-Phe-Arg-AFC; read-out: IC50 (human PKal)
pIC50: −log10 of the molar value.
measured.property: pIC50

Sample records with pIC50:
In [3]: df
Out[3]:
                                smiles_text  observed_result
0  COCc1nn(Cc2cnc(N3CCC(F)(F)C3)nc2)cc1C(=O)NCc1c(-n2cnnn2)ccc(OC)c1F             8.77
1  COCc1nn(Cc2ccc(Cn3ccccc3=O)cc2)cc1C(=O)NCc1c(C(N)=O)ccc(OC)c1F             8.44

a = COCc1nn(Cc2cnc(N3CCCC3)nc2)cc1C(=O)NCc1c(-n2cnnn2)ccc(OC)c1F
b = COc1ccnc(CNC(=O)c2cn(Cc3ccc(Cn4ccccc4=O)cc3)nc2N(C)C)c1F
// compare measured pIC50 between a and b ; output the lower one Your choice should be expressed through its label.
b
(b: 7.74, a: 8.82)

====

Experiment: Predicted plasma clearance (Clp), well-stirred model, human
Type: in vitro ADME
Conditions: percentage of hepatic blood flow
measured.property: Predicted in vivo human Clp (% LBF)

Sample records with Predicted in vivo human Clp (% LBF):
                                   molecule  observed_result
0  COc1ccc(C#N)c(CNC(=O)c2cn(Cc3ccc(Cn4ccccc4=O)cc3)nc2N)c1F [Example 43]                8
1  COCc1nn(Cc2ccc(Cn3ccccc3=O)cc2)cc1C(=O)NCc1cc(OC)ccc1C#N [Example 37]               16

1 = COCc1nn(Cc2ccc(Cn3cc(F)ccc3=O)cc2)cc1C(=O)NCc1c(C#N)ccc(OC)c1F [Example 53]
2 = COCc1nn(Cc2cnc(N3CCCC3)nc2)cc1C(=O)NCc1c(-n2cnnn2)ccc(OC)c1F [Example 79]
3 = COCc1nn(Cc2cnc(N3CCCC3)nc2)cc1C(=O)NCc1cc(OC)ccc1-n1cnnn1 [Example 80]
4 = COCc1nn(Cc2ccc(Cn3ccccc3=O)cc2)cc1C(=O)NCc1c(F)cccc1-n1cnnn1 [Reference Example H, reference compound]
Rank items: key Predicted in vivo human Clp (% LBF), increasing. Submit the labels in the order that the ranking request calls for.
2, 3, 4, 1

====

Target: Human plasma kallikrein (Homo sapiens (Human))
Experiment: Determination of the IC50 for plasma kallikrein
Conditions: 25° C., substrate H-DPro-Phe-Arg-AFC; read-out: IC50 (human PKal)
pIC50: −log10 of the molar value.
measured.property: pIC50

Sample records with pIC50:
In [3]: df
Out[3]:
                                   compound  observed_result
0  COCc1nn(Cc2cnc(N3CCCC3)nc2)cc1C(=O)NCc1cc(OC)ccc1-n1cnnn1 [Example 80]             7.97
1  COCc1nn(Cc2ccc(Cn3ccccc3=O)cc2)cc1C(=O)NCc1ncc(Cl)cc1C#N [Example 16]             6.73

A = COCc1nn(Cc2ccc(Cn3ccccc3=O)cc2)cc1C(=O)NCc1nn(C)cc1Cl [Example 34]
B = COCc1nn(Cc2ccc(Cn3ccccc3=O)cc2)cc1C(=O)NCc1c(F)cccc1-n1cnnn1 [Reference Example H, reference compound]
// compare measured pIC50 between A and B ; output the lower one Your choice should be expressed through its label.
A

====

Assay: In vitro permeability, Caco-2 model for oral absorption
Type: in vitro ADME
Conditions: human, apical to basolateral, 50 μM test compound, 37° C.
Procedure: In vitro permeability was determined using the Caco-2 model for oral absorption. The methodology was adapted from standard published methods (Wang Z, Hop C. E., Leung K. H. and Pang J. (2000) J Mass Spectrom 35(1); 71-76). […] Apical to basolateral transport was determined by measuring the test article in both compartments by LCMS following the 1 hour incubation. […]
measured.property: Papp at 1 h, 50 μM (×10⁻⁶ cm/s)

Sample records with Papp at 1 h, 50 μM:
>>> df
                                smiles_text  observed_result
0  COCc1nn(Cc2ccc(Cn3ccccc3=O)cc2)cc1C(=O)NCc1cc(F)ccc1-n1cnnn1                6
1  COc1ccc(-n2cnnn2)c(CNC(=O)c2cn(Cc3ccc(N4CCCC4)nc3)nc2C(F)(F)F)c1F               23

I = COCc1nn(Cc2ccc(Cn3ccccc3=O)cc2)cc1C(=O)NCc1cc(OC)ccc1-n1cnnn1
II = COCc1nn(Cc2cnc(N3CCCC3)nc2)cc1C(=O)NCc1c(C#N)ccc(OC)c1F
// compare measured Papp at 1 h, 50 μM between I and II ; output the lower one Your choice should be expressed through its label.
I
(I: 5 ×10⁻⁶ cm/s, II: 26 ×10⁻⁶ cm/s)

====

Molecular target: Human Factor XIIa (Homo sapiens (Human), UniProt P00748)
Sequence (P00748 373-615): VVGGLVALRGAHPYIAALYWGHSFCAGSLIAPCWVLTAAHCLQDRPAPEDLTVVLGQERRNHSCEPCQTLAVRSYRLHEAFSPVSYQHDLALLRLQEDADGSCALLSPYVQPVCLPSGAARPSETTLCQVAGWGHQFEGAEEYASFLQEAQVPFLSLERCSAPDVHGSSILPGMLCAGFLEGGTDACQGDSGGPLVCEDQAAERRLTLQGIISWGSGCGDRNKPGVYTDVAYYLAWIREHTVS
Reported values of IC50 for individual entries

Checklist item: IC50 tested on Human Factor XIIa (Homo sapiens (Human), UniProt P00748), entry COCc1nn(Cc2ccc(Cn3ccccc3=O)cc2)cc1C(=O)NCc1cc(OC)ncn1 , value?
> 4 µM

Checklist item: IC50 tested on Human Factor XIIa (Homo sapiens (Human), UniProt P00748), entry COCc1nn(Cc2ccc(Cn3ccccc3=O)cc2)cc1C(=O)NCc1nccc(OC)n1 , value?
> 40 µM

Checklist item: IC50 tested on Human Factor XIIa (Homo sapiens (Human), UniProt P00748), entry COCc1nn(Cc2ccc(Cn3ccccc3=O)cc2)cc1C(=O)NCc1c(C(N)=O)ccc(OC)c1F , value?
> 4 µM

Checklist item: IC50 tested on Human Factor XIIa (Homo sapiens (Human), UniProt P00748), entry COCc1nn(Cc2ccc(Cn3ccccc3=O)cc2)cc1C(=O)NCc1ncc(F)cc1F , value?
> 40 µM

Checklist item: IC50 tested on Human Factor XIIa (Homo sapiens (Human), UniProt P00748), entry Nc1nn(Cc2ccc(Cn3ccccc3=O)cc2)cc1C(=O)NCc1cc(Cl)ccc1-n1cnnn1 , value?
> 4 µM

Checklist item: IC50 tested on Human Factor XIIa (Homo sapiens (Human), UniProt P00748), entry COCc1nn(Cc2ccc(Cn3ccccc3=O)cc2)cc1C(=O)NCc1nccc(C)c1Cl , value?
> 40 µM

Checklist item: IC50 tested on Human Factor XIIa (Homo sapiens (Human), UniProt P00748), entry COCc1nn(Cc2ccc(Cn3cccn3)cc2)cc1C(=O)NCc1cccc(Cl)c1 [Reference Example I, reference compound] , value?
> 40 µM

Checklist item: IC50 tested on Human Factor XIIa (Homo sapiens (Human), UniProt P00748), entry COCc1nn(Cc2ccc(Cn3ccccc3=O)cc2)cc1C(=O)NCc1ncccc1C#N , value?
> 4 µM

====

Experiment: Pharmacokinetics following a single oral dose in male Sprague-Dawley rats
Format: in vivo
Conditions: rat, single po dose (nominal 10 mg/kg; actual dose per row in column Dose po), 10% DMSO/10% cremophor/80% SWFI, plasma
measured.property: Cmax (ng/mL)

>>> print(df.to_string())
                                smiles_text  measured_property  unit_of_measurement  observed_result
0  COCc1nn(Cc2ccc(Cn3cc(F)ccc3=O)cc2)cc1C(=O)NCc1nccc(OC)c1F               Cmax                ng/mL              756

A = COCc1nn(Cc2ccc(Cn3ccccc3=O)cc2)cc1C(=O)NCc1c(-n2cnnn2)ccc(OC)c1F
B = COCc1nn(Cc2cnc(N3CCC(F)(F)C3)nc2)cc1C(=O)NCc1c(-n2cnnn2)ccc(OC)c1F
API: POST /compare with A and B ; response names the item with higher Cmax. Your choice should be expressed through its label.
B
(B: 981 ng/mL, A: 187 ng/mL)

====

Experiment: In vitro permeability, Caco-2 model for oral absorption
Type: in vitro ADME
Settings: human, apical to basolateral, 50 μM test compound, 37° C.
Procedure: In vitro permeability was determined using the Caco-2 model for oral absorption. The methodology was adapted from standard published methods (Wang Z, Hop C. E., Leung K. H. and Pang J. (2000) J Mass Spectrom 35(1); 71-76). […] Apical to basolateral transport was determined by measuring the test article in both compartments by LCMS following the 1 hour incubation. […]
measured.property: Papp at 1 h, 50 μM (nm/s)

Sample records with Papp at 1 h, 50 μM:
>>> df
                                   compound  observed_result
0  COc1ccnc(CNC(=O)c2cn(Cc3ccc(Cn4ccccc4=O)cc3)nc2C(F)(F)F)c1F              170
1  COCc1nn(Cc2ccc(Cn3ccccc3=O)cc2)cc1C(=O)NCc1c(C(N)=O)ccc(OC)c1F               40
2  COCc1nn(Cc2ccc(Cn3ccccc3=O)cc2)cc1C(=O)NCc1ccccc1-n1cnnn1               20
3  COCc1nn(Cc2cnc(N3CCCC3)nc2)cc1C(=O)NCc1c(-n2cnnn2)ccc(OC)c1F              190
4  COc1ccc(C#N)c(CNC(=O)c2cn(Cc3ccc(Cn4ccccc4=O)cc3)nc2N(C)C)c1F              170
5  COCc1nn(Cc2ccc(Cn3ccccc3=O)cc2)cc1C(=O)NCc1cc(OC)ccc1C#N              200
6  COCc1nn(Cc2ccc(N3CCCC3)nc2)cc1C(=O)NCc1c(-n2cnnn2)ccc(OC)c1F              280
7  COCc1nn(Cc2ccc(Cn3cc(C)cn3)cc2)cc1C(=O)NCc1nccc(OC)c1F              280
8  COc1ccnc(CNC(=O)c2cn(Cc3ccc(Cn4ccccc4=O)cc3)nc2N(C)C)c1F              100
9  COCc1nn(Cc2ccc(Cn3cc(C)cn3)cc2)cc1C(=O)NCc1cc(OC)ccc1-n1cnnn1              220

P = COCc1nn(Cc2ccc(Cn3ccccc3=O)cn2)cc1C(=O)NCc1c(C#N)ccc(OC)c1F
Q = COCc1nn(Cc2ccc(Cn3cc(F)ccc3=O)cc2)cc1C(=O)NCc1nccc(OC)c1F
R = COc1ccc(C#N)c(CNC(=O)c2cn(Cc3ccc(Cn4ccccc4=O)cc3)nc2N)c1F
S = COCc1nn(Cc2ccc(Cn3ccccc3=O)cc2)cc1C(=O)NCc1c(-n2cnnn2)ccc(OC)c1F
Rank items: key Papp at 1 h, 50 μM, increasing. Submit the labels in the order that the ranking request calls for.
R, P, S, Q
(R: 20 nm/s, P: 30 nm/s, S: 60 nm/s, Q: 240 nm/s)

P = COc1ccc(-n2cnnn2)c(CNC(=O)c2cnn(Cc3cnc(N4CCCC4)nc3)c2)c1F [Reference Example K, reference compound]
Q = COCc1nn(Cc2cnc(N3CCCC3)nc2)cc1C(=O)NCc1cc(OC)ccc1-n1cnnn1
API: POST /compare with P and Q ; response names the item with higher Papp at 1 h, 50 μM. Your choice should be expressed through its label.
Q
(Q: 230 nm/s, P: 30 nm/s)

A = COCc1nn(Cc2ccc(Cn3ccccc3=O)cc2)cc1C(=O)NCc1c(Cl)cccc1-n1cnnn1
B = O=C(NCc1c(F)cccc1-n1cnnn1)c1cn(Cc2ccc(Cn3ccccc3=O)cc2)nc1C(F)(F)F
C = COCc1nn(Cc2ccc(Cn3cc(F)ccc3=O)cc2)cc1C(=O)NCc1c(C#N)ccc(OC)c1F
D = COc1ccnc(CNC(=O)c2cn(Cc3ccc(Cn4ccccc4=O)cc3)nc2N)c1F
E = COCc1nn(Cc2ccc(Cn3cc(C)cn3)cc2)cc1C(=O)NCc1c(-n2cnnn2)ccc(OC)c1F
Reorder: Papp at 1 h, 50 μM, max to min. Submit the labels in the order that the ranking request calls for.
E, C, B, A, D

Taken from patent US11180484B2.
